Molecular target: Nonstructural protein 3 (Zika virus, UniProt A0A024AXB9)
Sequence (A0A024AXB9 whole entry): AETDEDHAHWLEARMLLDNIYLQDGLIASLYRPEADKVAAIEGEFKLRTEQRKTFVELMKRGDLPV
Assay: Functional biochemical assay to identify treatments for viral infectious disease that targets Zika NS2B-NS3 protease. Utilizing a direct enzyme activity measurement method, reading the fluorescence intensity is used to characterize the relative potency of inhibitors as IC50. Synthetic construct has been made based on Zika virus (strain PRVABC59) by Centre for Medicines Discovery, University of Oxford, and the assay has been performed by Enamine biological services, Bienta Ltd.The protocol is publicly available: dx.doi.org/10.17504/protocols.io.36wgqn273gk5/v1
Could you please mark Criterion met for values of IC50 below 4 µM and Criterion not met for values at or above it?

STRUCTURE_AS_SMILES	CATEGORY_LABEL
Cc1c(C(=O)Nc2ccc3c(c2)CCC(=O)N3CC2CCC2)cc(C2CC2)n1C	Criterion not met
O=C1Cc2c(cccc2C(=O)Nc2cc(Br)c3ncnn3c2)N1	Criterion not met
O=C(O)COc1ccc(Cl)cc1[C@H](Nc1ccc2c(c1)CNC2)C(=O)NCC(F)F	Criterion met
Clc1cc(CNc2ccc3c(n2)CNC3)c2cn[nH]c2c1	Criterion not met
N#Cc1cccc(-c2nc3c(C(=O)Nc4cccc(F)c4)cc(Cl)cc3[nH]2)c1	Criterion not met
O=C(Nc1ccc2c(c1)CNC2)c1cc(Cl)cc2[nH]c(-c3cccc(F)c3)nc12	Criterion not met
COCCN(C)C(=O)[C@H](Nc1ccc2c(c1)CNC2)c1cc(Cl)cc(C2CC2)c1	Criterion not met
Nc1ccncc1-c1cc(F)cc(C(=O)Nc2ccc3c(c2)CNC3)c1	Criterion met
O=C(NCC(F)F)[C@H](Nc1ncc2c(n1)CNC2)c1cc(Cl)cc(C2CC2)c1	Criterion not met
CC(=O)N(c1ccc2c(c1)CNC2)[C@]1(c2cc(Cl)cc(C3CC3)c2)CN(C)C1=O	Criterion not met

Measured values drawn from ChEMBL document CHEMBL5604062 for this set.
